Where do these numbers come from? They come from patent US20070173444A1.

# Tested system: T1, IL-5RaECD (the extracellular domain (ECD) of the human IL-5 receptor a chain) (human, UniProt Q01344 21-342, extensively glycosylated)
# T1 construct: extracellular domain; also called IL-5RαECD; soluble IL-5Ra
# T1 sequence (Q01344 21-342, looked up): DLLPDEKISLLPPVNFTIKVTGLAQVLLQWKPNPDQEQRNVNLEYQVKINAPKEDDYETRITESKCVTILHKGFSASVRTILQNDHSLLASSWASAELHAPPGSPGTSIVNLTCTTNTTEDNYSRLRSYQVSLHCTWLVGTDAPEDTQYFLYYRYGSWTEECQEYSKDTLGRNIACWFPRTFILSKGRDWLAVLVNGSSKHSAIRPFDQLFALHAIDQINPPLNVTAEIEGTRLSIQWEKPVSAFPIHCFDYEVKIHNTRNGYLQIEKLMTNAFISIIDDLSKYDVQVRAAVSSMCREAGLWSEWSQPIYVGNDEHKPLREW
# Assay method text: scintillation proximity competition assay, 20 pM [125I] IL-5, soluble IL-5Ra on beads; dimer of the printed monomer
Bridge positions count the residues as written; N and C are the ends.
Quantity kind: SPA pIC50

For this binder ( H-EGYVCVEWARCPTCK-OH (disulfide (positions not given here); also: dimer, intramolecular and intermolecular disulfide linkages, places not given here) [dimer of (H)-EGYVCVEWARCPTCK-(OH)] ), measured SPA pIC50 is 8.7 negative log of the molar IC50

For this binder ( H-TGGGDGYVCVEWARCPTCK-OH (disulfide 15-18; also: homodimer via interchain disulfide Cys9-Cys9, Synthetic dimer made with orthogonal protecting groups) [AF 18748 (a dimer of residues 32-50 of SEQ ID NO: 8)] ), measured SPA pIC50 is 9.1 negative log of the molar IC50

For this binder ( H-EGYVCVEFARCPTCR-OH (disulfide (positions not given here); also: dimer, intramolecular and intermolecular disulfides, places not given here) [dimer of (H)-EGYVCVEFARCPTCR-(OH)] ), measured SPA pIC50 is 6.8 negative log of the molar IC50
